# STUDY SYSTEM: b-Raf(V600E) (Homo sapiens, UniProt P15056, V600E)
# Construct: made in house
# Sequence (P15056 whole entry V600E): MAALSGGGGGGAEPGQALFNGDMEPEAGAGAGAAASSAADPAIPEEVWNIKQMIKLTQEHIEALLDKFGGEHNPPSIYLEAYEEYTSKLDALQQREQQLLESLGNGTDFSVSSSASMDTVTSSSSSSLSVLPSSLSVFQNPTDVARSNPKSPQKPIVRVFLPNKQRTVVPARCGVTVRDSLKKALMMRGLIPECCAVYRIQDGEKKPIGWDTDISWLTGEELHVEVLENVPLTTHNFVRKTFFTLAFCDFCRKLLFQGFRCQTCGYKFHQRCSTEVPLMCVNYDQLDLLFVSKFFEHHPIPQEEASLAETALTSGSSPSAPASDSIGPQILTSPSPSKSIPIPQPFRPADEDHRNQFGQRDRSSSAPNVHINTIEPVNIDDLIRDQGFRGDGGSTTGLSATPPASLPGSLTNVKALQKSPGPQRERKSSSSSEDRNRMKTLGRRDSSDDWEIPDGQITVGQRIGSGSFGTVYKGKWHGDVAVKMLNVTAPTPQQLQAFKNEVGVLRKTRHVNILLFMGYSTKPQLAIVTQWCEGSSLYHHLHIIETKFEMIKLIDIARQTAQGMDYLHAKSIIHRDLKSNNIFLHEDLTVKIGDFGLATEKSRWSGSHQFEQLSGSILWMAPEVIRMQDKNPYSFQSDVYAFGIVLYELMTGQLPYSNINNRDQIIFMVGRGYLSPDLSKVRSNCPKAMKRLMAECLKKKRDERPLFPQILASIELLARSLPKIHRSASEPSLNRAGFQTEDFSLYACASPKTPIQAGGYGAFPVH
# EXPERIMENT SUMMARY: Raf/Mek Amplified Luminescence Proximity Homogeneous Assay (Alpha Screen), b-Raf(V600E)
# Format: biochemical
# MEASUREMENT CONTEXT: mutant b-Raf(V600E), read-out: mut-b-RAF (IC50 in uM)
OBSERVED PROPERTY: IC50 (µM)

molecule="Nc1ccc(-c2[nH]c(-c3ccccc3)nc2-c2ccncc2)c(F)n1 [Compound 37]" study_system="b-Raf(V600E) (Homo sapiens, UniProt P15056, V600E)" measurement=0.387
molecule="COc1cc(-c2[nH]c(-c3ccccc3)nc2-c2ccnc(N[C@@H]3CCCNC3)n2)cnc1N [Compound 65]" study_system="b-Raf(V600E) (Homo sapiens, UniProt P15056, V600E)" measurement=0.0599
molecule="COc1cccc(Nc2nccc(-c3[nH]c(-c4ccc(F)cc4)nc3-c3cnc(N)c(OC)c3)n2)c1 [Compound 153]" study_system="b-Raf(V600E) (Homo sapiens, UniProt P15056, V600E)" measurement=0.0002
molecule="COc1cc(-c2nc(-c3ccccc3)[nH]c2-c2ccnc(NC(C)=O)c2)cnc1N [Compound 82]" study_system="b-Raf(V600E) (Homo sapiens, UniProt P15056, V600E)" measurement=0.002
molecule="COc1ccc(-c2nc(-c3ccncc3)c(-c3cnc(N)c(OC)c3)[nH]2)cc1OC [Compound 107]" study_system="b-Raf(V600E) (Homo sapiens, UniProt P15056, V600E)" measurement=0.0007
molecule="COCC(=O)NCCNc1nccc(-c2[nH]c(-c3ccc(C(F)(F)F)cc3)nc2-c2cnc(N)c(OC)c2)n1 [Compound 85]" study_system="b-Raf(V600E) (Homo sapiens, UniProt P15056, V600E)" measurement=0.0002

I. CC[C@H](C)Nc1nccc(-c2nc(-c3ccc(F)cc3)[nH]c2-c2cnc(N)c(OC)c2)n1 [Compound 176]
II. COc1nc(-c2oc(-c3ccccc3)nc2-c2ccncc2)cnc1N [Compound 90]
In: Looking only at measured IC50, which entry is lower, I or II ? Answer = label.
Out: I

P. COCC(=O)N[C@@H](C)CNc1nccc(-c2[nH]c(C(C)C)nc2-c2cnc(N)c(OC)c2)n1 [Compound 226]
Q. COc1cc(-c2[nH]c(-c3ccccc3C)nc2-c2ccncc2)cnc1N [Compound 138]
In: Of P and Q , which one carries the higher reported IC50? Return value: the label identifying the chosen record.
Out: Q
(Q: 0.0012 µM, P: 0.0003 µM)

P. COc1cc(-c2nc(C(C)C)[nH]c2-c2ccncc2)cnc1N [Compound 140]
Q. COCC(=O)N[C@@H](C)CNc1nccc(-c2oc(-c3ccc(C(F)(F)F)cc3)nc2-c2cnc(N)c(OC)n2)n1 [Compound 229]
In: Hi team, can someone confirm which has the larger IC50: P or Q ? Thanks. Output the label that corresponds to your choice.
Out: Q
(Q: 0.003 µM, P: 0.0016 µM)

I. COc1cc(-c2nc(C(C)(C)C)[nH]c2-c2ccnc(NCC(C)C)n2)cnc1N [Compound 209]
II. COc1cc(-c2nc(-c3ccccc3)[nH]c2-c2ccnc(NC3CC3)n2)cnc1N [Compound 72]
III. COc1cc(-c2[nH]c(-c3ccc(F)cc3)nc2-c2ccnc(NC3CCCC3)n2)cnc1N [Compound 164]
In: // ascending sort on recorded IC50 List the labels according to the requested ordering.
Out: I, II, III
(I: 0.0001 µM, II: 0.0016 µM, III: 0.0163 µM)
